# maps each entry to its Delta MST
system: Plasmodium berghei; experiment: Change in mean survival time of trophozoite-induced Plasmodium berghei infection after 40 mg/kg subcutaneous dose; assay type: functional
Please answer using a numeric value trailed by its unit.

Below: 3 compounds and their reported Delta MST.
// CCN(CC)Cc1cc(Nc2cc[n+]([O-])c3cc(Cl)ccc23)cc(C2CCCCC2)c1O : Delta MST value = 3.9 days

# Delta MST of CCN(CC)Cc1cc(Nc2ccnc3cc(Cl)ccc23)cc(Cc2ccccc2)c1O = 1.7 days

Given item CCN(CC)Cc1cc(Nc2ccnc3cc(Cl)ccc23)cc(C)c1O , the value recorded as its Delta MST is 13 days

Continuing:
response.value for CCN(CC)Cc1cc(Nc2ccnc3cc(Cl)ccc23)c2c(c1O)CCCC2 (field: Delta MST) = 12.8 days

Measured Delta MST of CCN(CC)Cc1cc(Nc2ccnc3cc(Cl)ccc23)cc(C(C)C)c1O : 27.9 days

Recorded result, CC(C)(C)NCc1cc(Nc2ccnc3cc(Cl)ccc23)cc(-c2ccc(Cl)cc2)c1O [TEBUQUINE] , Delta MST: 19.9 days

Kindly note the recorded Delta MST for CCC(C)c1cc(Nc2cc[n+]([O-])c3cc(Cl)ccc23)cc(CN(CC)CC)c1O (stereo not given) , which is 20.9 days

Notebook: CCN(CC)Cc1cc(Nc2cc[n+]([O-])c3cc(Cl)ccc23)cc(Cc2ccccc2)c1O , Delta MST read as 2 days

Delta MST reported for this compound CCN(CC)Cc1cc(Nc2cc[n+]([O-])c3cc(Cl)ccc23)cc(C(C)(C)C)c1O : 1.7 days

// sample CCN(CC)Cc1cc(Nc2ccnc3cc(Cl)ccc23)cc(C(C)(C)C)c1O , its Delta MST was 0.5 days

---

test system: Plasmodium berghei; assay: Change in mean survival time of trophozoite-induced Plasmodium berghei infection after 20 mg/kg subcutaneous dose; format: functional
Recorded Delta MST by entry
Reply with just the number (in days).

The value of Delta MST measured for the molecule CCN(CC)Cc1cc(Nc2ccnc3cc(Cl)ccc23)cc(Cc2ccccc2)c1O turned out to be 0.2

---
Delta MST reported for this molecule CCc1cc(Nc2cc[n+]([O-])c3cc(Cl)ccc23)cc(CN(CC)CC)c1O : 5.5

Recorded Delta MST (molecule CC(C)(C)NCc1cc(Nc2ccnc3cc(Cl)ccc23)cc(-c2ccc(Cl)cc2)c1O ): 14.9

Please fill in: Delta MST reported for CCC(C)c1cc(Nc2cc[n+]([O-])c3cc(Cl)ccc23)cc(CN(CC)CC)c1O (centres undefined) = 12.6

response.value for CCN(CC)Cc1cc(Nc2ccnc3cc(Cl)ccc23)cc(Sc2ccc(Cl)cc2)c1O (field: Delta MST) = 3

The measured Delta MST associated with CCN(CC)Cc1cc(Nc2ccnc3cc(Cl)ccc23)c2c(c1O)CCCC2 reads 12.6

Reported Delta MST of CCN(CC)Cc1cc(Nc2cc[n+]([O-])c3cc(Cl)ccc23)cc(Cc2ccccc2)c1O : 0.4

The recorded Delta MST for entry CCc1cc(Nc2ccnc3cc(Cl)ccc23)cc(CN(CC)CC)c1O equals 12.1

Short answer for CCN(CC)Cc1cc(Nc2ccnc3cc(Cl)ccc23)ccc1O.Cl : Delta MST was 8.3

---

Below is a list of entries, each paired with its recorded Delta MST value.
system: Mus musculus; experiment: Antimalarial activity tested against trophozoite induced Plasmodium berghei in mice (Mus musculus) expressed as change in mean survival time after a single dose of 10 mg/kg (subcutaneously); type: functional; conditions: route subcutaneous
Report the figure along with its unit, number first.

# lookup: CCN(CC)Cc1cc(Nc2ccnc3cc(Cl)ccc23)cc(C(C)C)c1O on Mus musculus, Delta MST = 11.1 days

New cases:
Item CCC(C)c1cc(Nc2ccnc3cc(Cl)ccc23)cc(CN(CC)CC)c1O (stereo not drawn) ; assay system Mus musculus; Delta MST reported as 9.8 days

Bench note, Mus musculus: CCN(CC)Cc1cc(Nc2cc[n+]([O-])c3cc(Cl)ccc23)cc(C(C)C)c1O , Delta MST reads 3 days

// data source = ChEMBL document CHEMBL1123903
